Biological target: PDGFRβ (Homo sapiens, UniProt P09619)
Construct: purchased DiscoverX (KINOMEscan)
Sequence (P09619 33-1106): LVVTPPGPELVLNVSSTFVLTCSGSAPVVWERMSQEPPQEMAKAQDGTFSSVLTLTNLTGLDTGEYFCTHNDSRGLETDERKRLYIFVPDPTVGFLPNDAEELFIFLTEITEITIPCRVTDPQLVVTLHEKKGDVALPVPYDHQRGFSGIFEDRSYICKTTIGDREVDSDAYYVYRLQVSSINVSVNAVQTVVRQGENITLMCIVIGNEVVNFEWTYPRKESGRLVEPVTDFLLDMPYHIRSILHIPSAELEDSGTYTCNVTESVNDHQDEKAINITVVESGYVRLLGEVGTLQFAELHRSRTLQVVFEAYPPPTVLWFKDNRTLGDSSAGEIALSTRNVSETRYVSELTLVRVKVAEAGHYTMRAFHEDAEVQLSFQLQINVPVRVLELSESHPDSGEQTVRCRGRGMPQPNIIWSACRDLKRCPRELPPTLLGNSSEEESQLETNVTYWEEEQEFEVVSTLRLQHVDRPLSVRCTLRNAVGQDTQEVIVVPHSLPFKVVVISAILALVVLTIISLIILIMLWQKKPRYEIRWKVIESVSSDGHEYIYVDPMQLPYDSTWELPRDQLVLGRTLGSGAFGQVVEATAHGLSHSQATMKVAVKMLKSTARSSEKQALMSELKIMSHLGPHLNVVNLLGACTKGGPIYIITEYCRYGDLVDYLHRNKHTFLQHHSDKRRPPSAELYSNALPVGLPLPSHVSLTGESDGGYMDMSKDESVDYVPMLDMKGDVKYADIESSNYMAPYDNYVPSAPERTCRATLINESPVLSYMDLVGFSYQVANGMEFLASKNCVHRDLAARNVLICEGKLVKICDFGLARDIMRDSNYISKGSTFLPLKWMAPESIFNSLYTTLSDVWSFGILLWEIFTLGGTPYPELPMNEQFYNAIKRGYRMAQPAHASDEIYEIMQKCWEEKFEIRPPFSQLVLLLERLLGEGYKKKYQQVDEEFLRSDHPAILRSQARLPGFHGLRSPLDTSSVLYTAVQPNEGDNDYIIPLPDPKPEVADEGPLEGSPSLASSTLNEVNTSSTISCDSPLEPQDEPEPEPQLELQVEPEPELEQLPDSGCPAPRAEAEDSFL
Assay: KINOMEscan competitive binding
Settings: KINOMEscan, 10 µM, n=1; read-out: Percent inhibition, PDGFRB
List of inhibition at 10 µM values.
Express it in %; write the number only.

Guide cases for inhibition at 10 µM, answers given:
| Structure Smiles String | Measurement Target | Readout Unit | inhibition at 10 µM |
| --- | --- | --- | --- |
| CN1CCN(c2ccc(Nc3nccc(-c4cnn5ncccc45)n3)cc2C#N)CC1 | PDGFRβ (Homo sapiens, UniProt P09619) | % | 100 |
| C[C@@H](Oc1cc(-c2cnc3ccccn23)sc1C(N)=O)c1ccccc1Cl | PDGFRβ (Homo sapiens, UniProt P09619) | % | 0 |

[Q] Consider the molecule shown here: COc1ccc(Nc2nccc(-c3cnn4ncccc34)n2)cc1 What is its recorded inhibition at 10 µM?
[A] 100

[Q] Consider the molecule shown here: Fc1cccc(COc2ccc(Nc3ncnc4c3CN(CCN3CCOCC3)CC4)cc2Cl)c1 What is its recorded inhibition at 10 µM?
[A] 0

[Q] Consider the molecule shown here: COc1cc(Nc2nccc(-c3sc(N)nc3-c3cccc(NC(=O)c4c(F)cccc4F)c3)n2)cc(OC)c1OC What is its recorded inhibition at 10 µM?
[A] 100
